System: mice
Assay Text: Acute toxicity (DL0, oral)
Assay type: in vivo, mouse
Set-up: unit not given here
Structures can show the parent of a compound that is named as a salt.
The reader will find reported DL0 (maximum dose which did not cause any deaths after 8 days) values listed item by item below.

[[record]]
compound = "OC(COc1cccc(Cl)c1)CN1CCC(c2c[nH]c3ccccc23)CC1 (stereo not shown) [Example 22, hydrochloride]"
result = 80

[[record]]
compound = "C=CCOc1ccccc1OCC(O)CN1CC=C(c2c[nH]c3ccccc23)CC1 (stereo not shown)"
result = "> 200"

[[record]]
compound = "COc1ccc(OCC(O)CN2CCC(c3c[nH]c4ccccc34)CC2)cc1OC (stereo not shown) [Example 27, hydrochloride]"
result = 80

[[record]]
compound = "C=CCOc1ccc(OCC(O)CN2CCC(c3c[nH]c4ccccc34)CC2)cc1 (stereo not shown) [Example 26, hydrochloride]"
result = "> 200"

[[record]]
compound = "O=[N+]([O-])c1ccc(OCC(O)CN2CCC(c3c[nH]c4ccccc34)CC2)cc1 (stereo not shown) [Example 5, hydrochloride]"
result = "> 200"

[[record]]
compound = "C#CCc1ccccc1OCC(O)CN1CCC(c2c[nH]c3ccccc23)CC1 (stereo not shown) [Example 16, hydrochloride]"
result = "> 100"

[[record]]
compound = "C=CCOc1ccccc1OCC(O)CN1CCC(c2c[nH]c3ccccc23)CC1 (stereo not shown) [Example 1, hydrochloride]"
result = 100

[[record]]
compound = "Oc1cccc(OCC(O)CN2CCC(c3c[nH]c4ccccc34)CC2)c1 (stereo not shown) [Example 30, hydrochloride]"
result = "> 100"


Prompt: Given the compound Cc1ccccc1OCC(O)CN1CCC(c2c[nH]c3ccccc23)CC1 (stereo not shown) [Example 9, hydrochloride] , write its reported DL0 (maximum dose which did not cause any deaths after 8 days).
Completion: > 100

Prompt: Answer with reported DL0 (maximum dose which did not cause any deaths after 8 days) of Nc1ccccc1OCC(O)CN1CCC(c2c[nH]c3ccccc23)CC1 (stereo not shown)
Completion: > 100

Prompt: Give the reported value of DL0 (maximum dose which did not cause any deaths after 8 days) for this record: OC(COc1ccc(Cl)c(Cl)c1)CN1CCC(c2c[nH]c3ccccc23)CC1 (stereo not shown) [Example 29, hydrochloride]
Completion: > 100

Prompt: Assign DL0 (maximum dose which did not cause any deaths after 8 days) to the following record: OC(COc1ccccc1Cl)CN1CCC(c2c[nH]c3ccccc23)CC1 (stereo not shown) [Example 10, hydrochloride]
Completion: > 100

Prompt: Report DL0 (maximum dose which did not cause any deaths after 8 days) for COc1cccc(OCC(O)CN2CCC(c3c[nH]c4ccccc34)CC2)c1 (stereo not shown) [Example 23, hydrochloride]
Completion: > 200

Prompt: Write down DL0 (maximum dose which did not cause any deaths after 8 days) measured for item COC(=O)c1ccccc1OCC(O)CN1CCC(c2c[nH]c3ccccc23)CC1 (stereo not shown) [Example 6, hydrochloride]
Completion: 80

Prompt: Fill in reported DL0 (maximum dose which did not cause any deaths after 8 days) for this entry: OC(COc1cccc2ccccc12)CN1CCC(c2c[nH]c3ccccc23)CC1 (stereo not shown)
Completion: > 1000

Prompt: Name the recorded DL0 (maximum dose which did not cause any deaths after 8 days) of the compound listed here: CC(=O)c1ccccc1OCC(O)CN1CCC(c2c[nH]c3ccccc23)CC1 (stereo not shown) [Example 17, hydrochloride]
Completion: > 100

----------
Test system: α1 adrenergic receptors
Assay Text: Affinity for α1 adrenergic receptors (3H prazosine displacement, rat brain)
Assay type: binding
Run Parameters: relative to phentolamine (ARL=100×(CB/CX)), 25° C., pH 7.7
Where a name gives a salt, the structure may show the parent alone.
// reported % Arl (relative affinity for α1 adrenergic receptors) for each item listed
Numeric only. Scale: %

[[record]]
compound = "O=[N+]([O-])c1ccccc1OCC(O)CN1CCC(c2c[nH]c3ccccc23)CC1 (stereo not drawn) [Example 11, hydrochloride]"
unit_abbrev = "%"
numeric_result = 77

[[record]]
compound = "COC(=O)c1ccccc1OCC(O)CN1CCC(c2c[nH]c3ccccc23)CC1 (stereo not drawn) [Example 6, hydrochloride]"
unit_abbrev = "%"
numeric_result = 253


Here's the next entry for you.
Prompt: Tell me its % Arl (relative affinity for α1 adrenergic receptors) given Oc1ccccc1OCC(O)CN1CCC(c2c[nH]c3ccccc23)CC1 (stereo not drawn) [Example 13, hydrochloride] as the entry.
Completion: 293

Origin of the recorded values: patent US4530932A
